From: PubChem BioAssay (NCI)

# System: MDA-MB-435 melanoma
# assay protocol: NCI-60 one-dose screen, 48 h (100 = growth as untreated, 0 = no growth, -100 = all killed)
# experimental conditions: 10 µM unless noted
About 83,000 compounds went through this panel and 20% of them were active in at least one assay; those are over-represented in the sample as a whole.
Please use TRUE whenever growth is not below 60%, and FALSE whenever it is.

Example entries and their recorded answers appear below.
compound	category label
CS(=O)(=O)Nc1cc(-c2ccc3ncnc(Nc4ccc(F)c(Cl)c4)c3c2)cnc1Cl	FALSE
Cc1cnc(C(=O)NNc2nc3sc4c(c3c(=O)[nH]2)C(C)CCC4)cn1 (centres undefined)	FALSE
C=C(C)[C@@H]1CC[C@]2(C(=O)N3CCN(C)CC3)CC[C@]3(C)[C@H](CC[C@@H]4[C@@]5(C)CC(CCCNC(C)=O)(CCCNC(C)=O)[C@H](OC(C)=O)C(C)(C)[C@@H]5CC[C@]43C)[C@@H]12	TRUE
CCOc1ccccc1NC(=O)c1cc2ccccc2cc1O	FALSE
CCOC(=O)c1c(-c2ccc(OC)cc2)c(C#N)c2c(C#N)c(N)nn2c1N	FALSE
Cc1cc2nc(C(Cl)Cl)nc(-c3ccc(Cl)cc3)n2n1	FALSE
COC(=O)c1nc(-c2ccc(C)cc2)oc1Sc1ccc(C)cc1	TRUE

We next turn to a different compound, shown below.
Hi team, for "Cc1ccc(C(=O)Nc2ccc(CN3CCN(C)CC3)c(C(F)(F)F)c2)cc1C#Cc1cnc(N)cc1C#N" , is the recorded growth at or above 60%?
FALSE

---

Collected growth values appear next to each entry.
# Test system: LOX IMVI melanoma
# assay protocol: NCI-60 one-dose screen, 48 h (100 = growth as untreated, 0 = no growth, -100 = all killed)
# experimental conditions: 10 µM unless noted
This is part of a sample that, as a whole, favours compounds with a hit. Of some 83,000 tested, about 20% had one in any assay.
Record the value in %, omitting the unit from your answer.

Recorded results for 10 molecules are shown here.
molecule	unit string	growth
Cc1c(C(C)(C)O)cn2ncnc(Oc3ccc(NC(=O)Nc4ccc(Cl)c(C(F)(F)F)c4)cc3)c12	%	-9.63
O=C(NNc1ccccc1)C1CCCN1 (configuration not stated)	%	8.66
C=C1C(=O)O[C@H]2[C@H]1CC/C(COC(=O)NCCCCNC(=O)OC/C1=C/CC[C@@]3(C)O[C@H]3[C@H]3OC(=O)C(=C)[C@@H]3CC1)=C\CC[C@@]1(C)O[C@@H]21	%	-22.5
COc1cc(N=Nc2ccc(O)c3ncccc23)c2ncccc2c1	%	4.79
C/C=C(\C)C(=O)N[C@H]1CC[C@]2(C)C3CC[C@@]4(C)C(CC[C@@H]4C(C)N(C)C)C3CCC2[C@H]1OC(C)=O (some centres not stated)	%	-78.8
COc1cc(-c2nc3occn3c2-c2ccnc(NCCCNS(=O)(=O)c3ccc(O)cc3)n2)ccc1F	%	55.6
CN1CCN(Cc2ccc(NC(=O)c3cccc(C#Cc4c(N)ncc5ccc(F)cc45)c3)cc2C(F)(F)F)CC1	%	-97.9
CCN1CCN(C(=O)[C@]23CC[C@@H](C)[C@H](C)[C@@H]2C2=CC[C@@H]4[C@@]5(C)CCC(=O)C(C)(C)[C@@H]5CC[C@@]4(C)[C@]2(C)CC3)CC1	%	-85.2
COc1ccc(-c2cc(-c3cc(OC)c(OC)c(OC)c3)c(C#N)c(=O)n2CCCCC(=O)O)cc1	%	78.6
COc1cc(Cl)cc(-c2nn(C(=O)NS(=O)(=O)c3ccc(Cl)cc3)cc2-c2ccncc2)c1	%	45.5

Lab note: "Cn1cc(-c2nonc2-c2cn(C)c3ccc(Br)cc23)c2ccccc21" gave growth of 31.2

Lab note: "C=C(C)[C@@H]1CC[C@]2(C)[C@H](CC(=O)N[C@H]3[C@@H]4C[C@](C)(C(=O)OC)CC[C@]4(C)CC[C@]32C)[C@@]1(C)CCC#N" gave growth of 96.9

Lab note: "Cn1cc(C2=C(c3cccc4ccccc34)C(=O)NC2=O)c2cc(Br)ccc21" gave growth of 89.8

Lab note: "COc1ccc(CCNC(=O)COc2cc3c(Nc4ccc(F)c(Cl)c4)ncnc3cc2OC)cc1OC" gave growth of 90.1

Lab note: "COc1ccc(/C=N/NC(=O)CN2CCN(c3cc4c(cc3F)c(=O)c(C(=O)O)cn4C3CC3)CC2)cc1O" gave growth of 97.9

Lab note: CCCCC1COc2cccc3c2N1C=C/C3=C\C(=O)N(C)c1cccc(Cl)c1 (configuration not stated) gave growth of 99

Lab note: "Cc1cc2nc(C(Cl)Cl)nc(-c3ccc(Cl)cc3)n2n1" gave growth of 48.4
